Each recorded value in this set is attributed to patent US20210238260.

Biological target: Factor X, P00742
Sequence (P00742 whole entry, looked up): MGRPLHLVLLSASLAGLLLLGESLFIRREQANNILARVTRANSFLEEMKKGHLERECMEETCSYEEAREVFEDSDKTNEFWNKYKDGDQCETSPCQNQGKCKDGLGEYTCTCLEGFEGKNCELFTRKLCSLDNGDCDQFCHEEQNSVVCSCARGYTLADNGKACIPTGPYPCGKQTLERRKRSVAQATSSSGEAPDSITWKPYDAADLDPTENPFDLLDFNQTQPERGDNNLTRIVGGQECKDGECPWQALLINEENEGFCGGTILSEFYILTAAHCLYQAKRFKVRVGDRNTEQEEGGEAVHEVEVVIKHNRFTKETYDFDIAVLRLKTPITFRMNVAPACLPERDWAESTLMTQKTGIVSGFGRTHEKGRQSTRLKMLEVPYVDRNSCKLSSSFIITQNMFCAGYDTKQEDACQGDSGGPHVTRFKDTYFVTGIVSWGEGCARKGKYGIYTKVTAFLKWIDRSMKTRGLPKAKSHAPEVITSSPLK
property.measured: kcat/KM (M⁻¹ s⁻¹)

protein="FIXa-Y155F/K247N/N249S/R318Y/R403E/E410N (protein) chain 1: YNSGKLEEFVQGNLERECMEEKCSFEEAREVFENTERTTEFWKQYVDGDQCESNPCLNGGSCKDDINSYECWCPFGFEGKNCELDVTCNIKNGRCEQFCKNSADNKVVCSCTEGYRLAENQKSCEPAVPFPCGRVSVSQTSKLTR chain 2: VVGGEDAKPGQFPWQVVLNGKVDAFCGGSIVNEKWIVTAAHCVETGVKITVVAGEHNIEETEHTEQNRSVIRIIPHHNYNAAINKYNHDIALLELDEPLVLNSYVTPICIADKEYTNIFLKFGSGYVSGWGRVFHKGYSALVLQYLRVPLVDRATCLRSTKFTIYNNMFCAGFHEGGRDSCQGDSGGPHVTEVEGTSFLTGIISWGEECAMKGKYGIYTKVSEYVNWIKNKTKLT" endpoint_result=1e+07
